Please respond with reported IC50 for every item in the list.
Tested on: Kuramochi cell line
experimental protocol: Cell Viability Assay (Cell Titer-Glo, 7 days)
Format: cell-based
condition summary: 168 h, Kuramochi cells, 7 days incubation, read-out: PARG Cell viability (IC50)

*Q* Query: IC50; subject: N#CC1(NS(=O)(=O)c2ccc3c4c(N5CCC(F)CC5)ncnc4n(-c4nnc(C(F)F)s4)c3c2)CC1
*A* 0.1 to 1 µM

*Q* Query: IC50; subject: CN(CC(F)(F)F)C(=O)N1CCN(c2ncnc3c2c2ccc(S(=O)(=O)NC4(C#N)CC4)cc2n3-c2nnc(C(F)F)s2)CC1
*A* < 0.1 µM

*Q* Query: IC50; subject: N#CC1(NS(=O)(=O)c2ccc3c4c(N5CCC(N6CCC6)[C@@H](F)C5)ncnc4n(-c4nnc(C(F)F)s4)c3c2)CC1 (stereo partly drawn)
*A* < 0.1 µM

*Q* Query: IC50; subject: CC1(C(=O)N2CCN(c3ncnc4c3c3ccc(S(=O)(=O)NC5(C#N)CC5)cc3n4-c3nnc(C(F)F)s3)CC2)CCC1
*A* 0.1 to 1 µM

*Q* Query: IC50; subject: C[C@H]1CN(c2ncnc3c2c2ccc(S(=O)(=O)NC4(C)CC4)cc2n3-c2nnc(C(F)F)s2)CCN1C(=O)N(C)C
*A* < 0.1 µM

*Q* Query: IC50; subject: C[C@@H]1CN(C(=O)N(C)C)[C@@H](C)CN1c1ncnc2c1c1ccc(S(=O)(=O)NC3(C#N)CC3)cc1n2-c1nnc(C(F)F)s1
*A* < 0.1 µM

* * *

Please respond with reported pIC50 for every item in the list.
Test system: Kuramochi cell line
experimental protocol: Cell Viability Assay (Cell Titer-Glo, 7 days)
Assay type: cell-based
condition summary: 168 h, Kuramochi cells, 7 days incubation, read-out: PARG Cell viability (IC50)
pIC50: −log10 of the molar value.

*Q* Query: pIC50; subject: N#CC1(NS(=O)(=O)c2ccc3c4c(N5CC6CN(C(=O)C7COC7)CC6C5)ncnc4n(-c4nnc(C(F)F)s4)c3c2)CC1 (stereo not drawn)
*A* 6.00 to 7.00

*Q* Query: pIC50; subject: CCN(C)C(=O)N1CCN(c2ncnc3c2c2ccc(S(=O)(=O)NC4(C#N)CC4)cc2n3-c2nnc(C(F)F)s2)CC1
*A* > 7.00

*Q* Query: pIC50; subject: CN(C)C(=O)N1CC=C(c2ncnc3c2c2cc(F)c(S(=O)(=O)NC4(C)CC4)cc2n3-c2nnc(C(F)F)s2)CC1
*A* > 7.00

* * *

Please respond with reported IC50 for every item in the list.
Tested on: Kuramochi cell line
experimental protocol: Cell Viability Assay (Cell Titer-Glo, 7 days)
Type: cell-based
condition summary: 168 h, Kuramochi cells, 7 days incubation, read-out: PARG Cell viability (IC50)

*Q* Query: IC50; subject: CN1CCN(c2ncnc3c2c2ccc(S(=O)(=O)NC4(C#N)CC4)cc2n3-c2nnc(C(F)F)s2)C[C@@H]1CF
*A* < 100 nM

*Q* Query: IC50; subject: N#CC1(NS(=O)(=O)c2ccc3c4c(N5CCC(O)CC5)ccnc4n(-c4nnc(C(F)F)s4)c3c2)CC1
*A* 100 to 1000 nM

*Q* Query: IC50; subject: COCCN(C)C(=O)N1CCC(c2ncnc3c2c2ccc(S(=O)(=O)NC4(C#N)CC4)cc2n3-c2nnc(C(F)F)s2)CC1
*A* < 100 nM

*Q* Query: IC50; subject: N#CC1(NS(=O)(=O)c2ccc3c4c(C5CCN(C(=O)N6CCCO6)CC5)ncnc4n(-c4nnc(C(F)F)s4)c3c2)CC1
*A* < 100 nM

*Q* Query: IC50; subject: CC(C)C(=O)N1C=CC(c2ncnc3c2c2ccc(S(=O)(=O)NC4(C#N)CC4)cc2n3-c2nnc(C(F)F)s2)CC1 (stereo not shown)
*A* < 100 nM

*Q* Query: IC50; subject: CC(C)(O)C(=O)N1CCC(c2ncnc3c2c2ccc(S(=O)(=O)NC4(C#N)CC4)cc2n3-c2nnc(C(F)F)s2)CC1
*A* < 100 nM

*Q* Query: IC50; subject: N#CC1(NS(=O)(=O)c2ccc3c4c(N5CCN(C(=O)c6ccc(F)cc6)CC5)ncnc4n(-c4nnc(C(F)F)s4)c3c2)CC1
*A* 100 to 1000 nM

Where these numbers come from: patent US20250388589A1
